# Assay System: T1, mouse tissue factor pathway inhibitor (TFPI) (mouse, UniProt O54819 29-289, limits assumed)
# T1 construct: bought; also called mTFPI; murine TFPI
# T1 sequence (looked up): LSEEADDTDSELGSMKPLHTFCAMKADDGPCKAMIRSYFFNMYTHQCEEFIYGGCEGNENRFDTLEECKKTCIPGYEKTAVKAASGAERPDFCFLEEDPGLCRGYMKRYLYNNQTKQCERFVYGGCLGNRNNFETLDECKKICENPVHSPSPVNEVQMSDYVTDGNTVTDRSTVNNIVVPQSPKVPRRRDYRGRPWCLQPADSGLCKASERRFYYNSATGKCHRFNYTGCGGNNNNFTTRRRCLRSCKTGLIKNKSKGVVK
# Assay Details: competitive ELISA

[
  {
    "Binder": "4B7 HC N32D+D62Q+H107M+Y112D/LC N35I (Fab, V domains shown) VH: QVQLQQSGPGLVKPSQTLSLTCAISGDSVSSDSAAWSWIRQSPGRGLEWLGIIYKRSKWYNQYAVSVKSRITINPDTSKNQFSLQLNSVTPEDTAVYYCARWHSDKMWGFDDWGQGTLVTVSS VL: DIVMTQSPLSLPVTPGEPASISCRSSQSLVFSDGITYLNWYLQKPGQSPQLLIYKGSNRASGVPDRFSGSGSGTDFTLKISRVEAEDVGVYYCQQYDSYPLTFGQGTKVEIKR",
    "variant/HC_D62R": "16.4 ratio"
  },
  {
    "Binder": "4B7 HC N32D+K55Y+D62R+Y112D/LC S32R+D33F+N35I+D97T (Fab, V domains shown) VH: QVQLQQSGPGLVKPSQTLSLTCAISGDSVSSDSAAWSWIRQSPGRGLEWLGIIYYRSKWYNRYAVSVKSRITINPDTSKNQFSLQLNSVTPEDTAVYYCARWHSDKHWGFDDWGQGTLVTVSS VL: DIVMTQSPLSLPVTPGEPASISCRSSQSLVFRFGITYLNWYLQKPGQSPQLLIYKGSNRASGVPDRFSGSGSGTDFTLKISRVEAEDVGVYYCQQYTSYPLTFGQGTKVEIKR",
    "variant/HC_D62R": "42.8 ratio"
  },
  {
    "Binder": "4B7 HC N32D+D62Q+H107M+Y112D/LC S32R+D33F+N35I (Fab, V domains shown) VH: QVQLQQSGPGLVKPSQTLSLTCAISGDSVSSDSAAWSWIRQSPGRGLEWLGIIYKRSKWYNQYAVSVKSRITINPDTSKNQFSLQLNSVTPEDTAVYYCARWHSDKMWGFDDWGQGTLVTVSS VL: DIVMTQSPLSLPVTPGEPASISCRSSQSLVFRFGITYLNWYLQKPGQSPQLLIYKGSNRASGVPDRFSGSGSGTDFTLKISRVEAEDVGVYYCQQYDSYPLTFGQGTKVEIKR",
    "variant/HC_D62R": "46.6 ratio"
  },
  {
    "Binder": "gB9.7 (4B7 HC Q1E+N32D+G44S+K55Y+D62R+Y112D/LC S32R+N35I) (Fab, V domains shown) VH: EVQLQQSGPGLVKPSQTLSLTCAISGDSVSSDSAAWSWIRQSPSRGLEWLGIIYYRSKWYNRYAVSVKSRITINPDTSKNQFSLQLNSVTPEDTAVYYCARWHSDKHWGFDDWGQGTLVTVSS VL: DIVMTQSPLSLPVTPGEPASISCRSSQSLVFRDGITYLNWYLQKPGQSPQLLIYKGSNRASGVPDRFSGSGSGTDFTLKISRVEAEDVGVYYCQQYDSYPLTFGQGTKVEIKR",
    "variant/HC_D62R": "25.5 ratio"
  },
  {
    "Binder": "4B7 HC N32D+D62R+H107M+Y112D/LC F31M+S32R+D33R+N35T (Fab, V domains shown) VH: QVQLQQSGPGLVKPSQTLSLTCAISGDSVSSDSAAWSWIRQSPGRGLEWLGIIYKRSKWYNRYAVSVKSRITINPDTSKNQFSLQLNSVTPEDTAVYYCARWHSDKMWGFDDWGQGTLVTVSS VL: DIVMTQSPLSLPVTPGEPASISCRSSQSLVMRRGTTYLNWYLQKPGQSPQLLIYKGSNRASGVPDRFSGSGSGTDFTLKISRVEAEDVGVYYCQQYDSYPLTFGQGTKVEIKR",
    "variant/HC_D62R": "18.7 ratio"
  }
]
